Biological target: Trypsin (Homo sapiens, UniProt P07477+P07478+P35030)
Experiment: Inhibition of trypsin (unknown origin) at 50 uM using Boc-Val-Pro-Arg-AMC as substrate preincubated for 15 mins followed by substrate addition and measured for 15 mins by fluorimetric assay relative to control
Assay type: protein assay
Conditions: trypsin (unknown origin), probe Boc-Val-Pro-Arg-AMC
# inhibition at 0.25 h, 50 µM listing for each entry below
observable: inhibition at 0.25 h, 50 µM

- compoundSmiles: "CCCCCC(=O)N[C@H](C(=O)NCc1ccc(C(=N)N)cc1)c1ccc(OCc2ccccc2)cc1.O=C(O)C(F)(F)F"
  endpointValue: "> 50%"
- compoundSmiles: "CCCCCC(=O)N[C@@H](C(=O)NCc1ccc(NC(=N)N)cc1)c1ccc(OCc2ccccc2)cc1.O=C(O)C(F)(F)F"
  endpointValue: "> 50%"
- compoundSmiles: "N=C(N)Nc1ccc(CNC(=O)[C@@H](NC(=O)c2ccc(-c3ccccc3)cc2)c2ccc(OCc3ccccc3)cc2)cc1.O=C(O)C(F)(F)F"
  endpointValue: "> 50%"

* * *

Molecular target: Genome polyprotein (dengue virus type 2) (UniProt P29990)
Assay: Inhibition of Dengue virus serotype 2 NS2B-NS3 protease transfected in human HeLa cells at 12.5 uM measured after 24 hrs by Renilla-luciferase reporter gene assay relative to control
Format: cell-based
Is inhibition at least 40%? Then true. If not, false.

- compoundSmiles: "CCCCCC(=O)N[C@H](C(=O)N[C@@H](CCCCN)C(N)=O)c1ccc(OCc2ccccc2)cc1"
  cat: "false"
- compoundSmiles: "CCCCCC(=O)N[C@H](C(=O)NCc1cccc(CN)c1)c1ccc(OCc2ccccc2)cc1"
  cat: "true"
- compoundSmiles: "CCCCCC(=O)N[C@H](C(=O)NCc1ccc(NC(=N)N)cc1)c1ccc(OCc2ccccc2)cc1.O=C(O)C(F)(F)F"
  cat: "true"
- compoundSmiles: "CCCCCC(=O)N[C@H](C(=O)NCc1ccc(NC(=O)CN)cc1)c1ccc(OCc2ccccc2)cc1"
  cat: "false"
- compoundSmiles: "CCCCCC(=O)N[C@H](C(=O)NCc1ccc(C(=N)N)cc1)c1ccc(OCc2ccccc2)cc1.O=C(O)C(F)(F)F"
  cat: "true"
- compoundSmiles: "N=C(N)NCc1ccc(CNC(=O)[C@H](NC(=O)c2ccc(Oc3ccccc3)cc2)c2ccc(OCc3ccc(Cl)c(Cl)c3)cc2)cc1.O=C(O)C(F)(F)F"
  cat: "false"
- compoundSmiles: "CCCCCC(=O)N[C@H](C(=O)NCc1ccc(N)nc1)c1ccc(OCc2ccccc2)cc1.O=C(O)C(F)(F)F"
  cat: "true"
- compoundSmiles: "CCCCCC(=O)N[C@H](C(=O)NCc1ccc(C(=O)NN)cc1)c1ccc(OCc2ccccc2)cc1"
  cat: "false"
- compoundSmiles: "CC(=O)N[C@H](C(=O)NCc1ccc(NC(=N)N)cc1)c1ccc(OCc2ccccc2)cc1.O=C(O)C(F)(F)F"
  cat: "false"
- compoundSmiles: "CCCCCC(=O)N[C@@H](C(=O)NCc1ccc(NC(=N)N)cc1)c1ccc(OCc2ccc(Cl)c(Cl)c2)cc1.O=C(O)C(F)(F)F"
  cat: "true"
- compoundSmiles: "N=C(N)Nc1ccc(CNC(=O)[C@@H](NC(=O)c2ccc(-c3cccs3)s2)c2ccc(OCc3ccccc3)cc2)cc1.O=C(O)C(F)(F)F"
  cat: "true"
- compoundSmiles: "CCCCCC(=O)N[C@H](C(=O)NCCCCCCN)c1ccc(OCc2ccccc2)cc1"
  cat: "true"
- compoundSmiles: "CCCCCC(=O)N[C@H](C(=O)NCc1ccc(NC(=N)N)cc1)c1ccc(OCc2ccc(C(C)(C)C)cc2)cc1.O=C(O)C(F)(F)F"
  cat: "false"
- compoundSmiles: "CCCCCC(=O)N[C@H](C(=O)NCc1ccc(C#N)cc1)c1ccc(OCc2ccccc2)cc1"
  cat: "false"
- compoundSmiles: "CCCCCC(=O)N[C@H](C(=O)NCc1ccc(NC(=N)N)cc1)c1ccccc1.O=C(O)C(F)(F)F"
  cat: "false"

* * *

Test: Permeability of the compound assessed as drug level in acceptor plate at 200 uM measured after 5 hrs at pH 7.4 by PAMPA
Assay type: ADME
Conditions: pH 7.4, 5 h

- molecule: "N=C(N)Nc1ccc(CNC(=O)[C@@H](NC(=O)c2ccc(Oc3ccccc3)cc2)c2ccc(OCc3ccccc3)cc2)cc1.O=C(O)C(F)(F)F"
  Drug uptake: "1.2 µM"
- molecule: "NC(=O)N1c2ccccc2C=Cc2ccccc21 [CARBAMAZEPINE]"
  Drug uptake: "35.7 µM"
- molecule: "N=C(N)Nc1ccc(CNC(=O)[C@@H](NC(=O)c2cccc(Oc3ccccc3)c2)c2ccc(OCc3ccccc3)cc2)cc1.O=C(O)C(F)(F)F"
  Drug uptake: "1.1 µM"
- molecule: "CCCCCCCC(=O)N[C@H](C(=O)NCc1ccc(NC(=N)N)cc1)c1ccc(OCc2ccccc2)cc1.O=C(O)C(F)(F)F"
  Drug uptake: "1.5 µM"

* * *

Target: Trypsin (Homo sapiens, UniProt P07477+P07478+P35030)
Test: Inhibition of trypsin (unknown origin) at 50 uM using Boc-Val-Pro-Arg-AMC as substrate preincubated for 15 mins followed by substrate addition and measured for 15 mins by fluorimetric assay relative to control
Format: protein assay
Details: 0.25 h, 50 µM

- compoundSmiles: "N=C(N)Nc1ccc(CNC(=O)[C@@H](NC(=O)Cc2ccc(-c3ccccc3)cc2)c2ccc(OCc3c(Cl)cccc3Cl)cc2)cc1.O=C(O)C(F)(F)F"
  inhibition (INH): "Not Active"
- compoundSmiles: "CCCCCC(=O)N[C@H](C(=O)NCc1ccc(NC(=O)CN)cc1)c1ccc(OCc2ccccc2)cc1"
  inhibition (INH): "Not Active"
- compoundSmiles: "CCCCCC(=O)N[C@H](C(=O)NCc1ccc(NC(=N)N)cc1)c1ccc(OCc2ccc(C#N)cc2)cc1.O=C(O)C(F)(F)F"
  inhibition (INH): "Not Active"
- compoundSmiles: "CCCCCC(=O)N[C@H](C(=O)Nc1ccc2[nH]ncc2c1)c1ccc(OCc2ccccc2)cc1"
  inhibition (INH): "Not Active"

* * *

Target: UniProt:P00734
Experiment: Inhibition of thrombin (unknown origin) at 25 uM using Boc-Val-Pro-Arg-AMC as substrate preincubated for 15 mins followed by substrate addition and measured for 15 mins by fluorimetric assay
Conditions: 0.25 h
observable: inhibition (INH)

- compoundSmiles: "N=C(N)Nc1ccc(CNC(=O)[C@@H](NC(=O)c2ccccc2)c2ccc(OCc3ccccc3)cc2)cc1.O=C(O)C(F)(F)F"
  observable: "inhibition (INH)"
  endpointValue: "Not Active"
- compoundSmiles: "COc1cccc(COc2ccc(C(=O)N[C@H](C(=O)NCc3ccc(NC(=N)N)cc3)c3ccc(OCc4ccccc4)cc3)cc2)c1.O=C(O)C(F)(F)F"
  observable: "inhibition (INH)"
  endpointValue: "Not Active"
- compoundSmiles: "N=C(N)NCc1ccc(CNC(=O)[C@H](NC(=O)c2ccc(Oc3ccccc3)cc2)c2ccc(OCc3ccc(Cl)c(Cl)c3)cc2)cc1.O=C(O)C(F)(F)F"
  observable: "inhibition (INH)"
  endpointValue: "Not Active"

* * *

Experiment: Cytotoxicity against human HeLa cells assessed as reduction in cell viability measured after 24 hrs by celltiter-blue assay
Type: cell-based
CC50 at 24 h by entry:

- compoundSmiles: "CCCCCCCCCC(=O)N[C@H](C(=O)NCc1ccc(NC(=N)N)cc1)c1ccc(OCc2ccccc2)cc1.O=C(O)C(F)(F)F"
  CC50 at 24 h: "> 50 µM"
- compoundSmiles: "N=C(N)Nc1ccc(CNC(=O)[C@@H](NC(=O)c2ccccc2)c2ccc(OCc3ccccc3)cc2)cc1.O=C(O)C(F)(F)F"
  CC50 at 24 h: "> 50 µM"
- compoundSmiles: "N=C(N)Nc1ccc(CNC(=O)[C@@H](NC(=O)c2ccc(OCc3ccc(Cl)cc3)cc2)c2ccc(OCc3ccccc3)cc2)cc1.O=C(O)C(F)(F)F"
  CC50 at 24 h: "> 12.5 µM"
- compoundSmiles: "N=C(N)Nc1ccc(CNC(=O)[C@@H](NC(=O)c2cccc(Oc3ccccc3)c2)c2ccc(OCc3ccccc3)cc2)cc1.O=C(O)C(F)(F)F"
  CC50 at 24 h: "> 25 µM"
- compoundSmiles: "N=C(N)Nc1ccc(CNC(=O)[C@@H](NC(=O)c2ccc(-c3ccccc3)cc2)c2ccc(OCc3ccccc3)cc2)cc1.O=C(O)C(F)(F)F"
  CC50 at 24 h: "> 50 µM"
- compoundSmiles: "CCCCCC(=O)N[C@H](C(=O)NCc1ccc(N)cc1)c1ccc(OCc2ccccc2)cc1.O=C(O)C(F)(F)F"
  CC50 at 24 h: "> 50 µM"
- compoundSmiles: "CCCCCC(=O)N[C@H](C(=O)NCc1ccc(NC(=N)N)nc1)c1ccc(OCc2ccccc2)cc1.O=C(O)C(F)(F)F"
  CC50 at 24 h: "> 50 µM"
- compoundSmiles: "CCCCC(=O)N[C@H](C(=O)NCc1ccc(NC(=N)N)cc1)c1ccc(OCc2ccccc2)cc1.O=C(O)C(F)(F)F"
  CC50 at 24 h: "> 50 µM"
- compoundSmiles: "COc1cccc(COc2ccc(C(=O)N[C@H](C(=O)NCc3ccc(NC(=N)N)cc3)c3ccc(OCc4ccccc4)cc3)cc2)c1.O=C(O)C(F)(F)F"
  CC50 at 24 h: "> 12.5 µM"
- compoundSmiles: "CCCCCC(=O)N[C@H](C(=O)NCc1ccc(NC(=N)N)cc1)c1ccc(OCc2cccc(OC)c2)cc1.O=C(O)C(F)(F)F"
  CC50 at 24 h: "> 50 µM"
- compoundSmiles: "CCCCCC(=O)N[C@H](C(=O)NCc1ccc(C(=N)N)cc1)c1ccc(OCc2ccccc2)cc1.O=C(O)C(F)(F)F"
  CC50 at 24 h: "> 50 µM"
- compoundSmiles: "CCCCCC(=O)N[C@H](C(=O)NCc1ccc(NC(=N)N)cc1)c1ccccc1.O=C(O)C(F)(F)F"
  CC50 at 24 h: "> 50 µM"
- compoundSmiles: "CCCCCC(=O)N[C@H](C(=O)NCc1ccc(C#N)cc1)c1ccc(OCc2ccccc2)cc1"
  CC50 at 24 h: "> 50 µM"
- compoundSmiles: "CCCCCC(=O)N[C@H](C(=O)NCCN)c1ccc(OCc2ccccc2)cc1"
  CC50 at 24 h: "> 50 µM"
